Listing of recorded apparent Kd by entry.
system: MS2 coat protein; assay: apparent Kd, MS2 coat protein; higher = weaker binding; RNA-MaP array; conditions: designed as: OFF switch for flavin mononucleotide; no ligand

// known answers, use as guide
AUCAUAAGAGUAGGAUAUCGACAUGAGGAUCACCCAUGUACCUUGGAUGACCGCUAAUGGUUUAUCGAGAAGGACUUUUCCUCC 8.2 nM
AGCAUCGCAGGAUAUACAUGAGGAUCACCCAUGUAAAAUAACAAACUUGAACCUGCAAGUAGAAGGGCGUAACG 8.31 nM

Give the reported apparent Kd for GAUCGUUGGGAGGAUAUCCGCAAGUCCAGGGAGGGAGAAGGCCCAACAUGAGGAUCACCCAUGUAGAAGCGCAU (system: MS2 coat protein).
51 nM

Give the reported apparent Kd for GUAUAUACAUAGGAUAUGUCGGCCGGUUAUGCAACAGAAGGAUGUACAUGAGGAUCACCCAUGUCAAUUGGGAG (system: MS2 coat protein).
74.6 nM

This collection of values is drawn from the EternaBench riboswitch data.
